# target-desc: human Y4 receptor (human, UniProt P50391 1-375)
# Sequence (P50391 whole entry): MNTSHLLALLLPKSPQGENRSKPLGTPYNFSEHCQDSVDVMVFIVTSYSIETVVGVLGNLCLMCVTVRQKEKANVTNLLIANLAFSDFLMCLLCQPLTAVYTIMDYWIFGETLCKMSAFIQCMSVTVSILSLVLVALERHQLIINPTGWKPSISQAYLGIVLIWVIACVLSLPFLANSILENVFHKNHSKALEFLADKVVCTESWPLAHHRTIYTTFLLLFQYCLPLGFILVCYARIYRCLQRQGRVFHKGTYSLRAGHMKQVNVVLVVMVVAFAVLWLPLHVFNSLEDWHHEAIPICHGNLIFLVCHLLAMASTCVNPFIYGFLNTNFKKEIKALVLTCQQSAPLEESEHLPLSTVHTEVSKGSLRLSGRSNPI
# experiment-description: 125I-PP displacement
measured-property: IC50 (nM)

Below: 6 binders and their reported IC50.
>>> result_value("AAPLEPSYPGDNATPEQLAHYYSELRRYINKLTRPRY [4057779]")
0.071
>>> result_value("AAPLEPTYPGDNATPEQMAHYYSELRRYINKLTRPRY [4057782]")
0.078
>>> result_value("GAPLEPHYPGDDATPQQMARYAAELRRYINKLTRPRY [4057899]")
0.064
>>> result_value("AAPLEPHYPGDNATPEQLAKYAADLRRYINKLTRPRY [4057752]")
0.071
>>> result_value("AAPLEPHYPGDNATPEQMAKYYSELRRYINKLTRPRY [4057762]")
0.167
>>> result_value("PAPLEPHYPGDDATPQQMARYAAELRRYINLLTRPRY [4058057]")
0.111

A = PAPLEPTYPGDNATPEQLAHYYSELRRYINKLTRPRY [4057785]
B = APLEPHYPGDNATPEQMAKYAADLRRYINKLTRPRF [4057745]
## Input Returns: the label, A or B , whose recorded IC50 is the lower number. // output: label of the selected item
## Output B
